test: Inhibition of recombinant full length NS3/4A protease in Hepatitis C virus subtype 3a replicon infected in human HuH7 cells preincubated for 3 days followed by substrate addition and measured after 2 hrs by renilla luciferase reporter gene assay; assay type: cell-based; settings: Huh-7
Please respond with reported log10 of EC50 for every item in the list.
Reminder: these figures are log10 of reported EC50, in nM before transformation.

The measured log10 of EC50 associated with `CC[C@@H]1C[C@H](C)CC/C=C\[C@@H]2C[C@@]2(C(=O)NS(=O)(=O)C2(C)CC2)NC(=O)[C@@H]2C[C@@H](Oc3nccc4cc(O)c(F)cc34)CN2C(=O)[C@H]1NC(=O)OC(C)(C)C(F)(F)F` reads 1.68

The measured log10 of EC50 associated with `CC[C@@H]1C[C@H](C)CC/C=C\[C@@H]2C[C@@]2(C(=O)NS(=O)(=O)C2(C)CC2)NC(=O)[C@@H]2C[C@@H](Oc3ncc(OC)c4ccccc34)CN2C(=O)[C@H]1NC(=O)OC(C)(C)C(F)(F)F` reads 0.87

The measured log10 of EC50 associated with `C=C[C@@H]1C[C@]1(NC(=O)[C@@H]1C[C@@H](Oc2ncc(OC)c3ccc(Cl)cc23)CN1C(=O)[C@@H](NC(=O)OC(C)(C)C)C(C)(C)C)C(=O)NS(=O)(=O)C1CC1` reads 2.61

The measured log10 of EC50 associated with `COc1cnc(O[C@@H]2C[C@H]3C(=O)N[C@]4(C(=O)NS(=O)(=O)C5CC5)C[C@H]4/C=C\CCCC[C@@H](C)[C@H](NC(=O)OC(C)(C)C)C(=O)N3C2)c2cc(Cl)ccc12` reads 1.88

The measured log10 of EC50 associated with `[2H]C([2H])([2H])Oc1cnc(O[C@@H]2C[C@H]3C(=O)N[C@]4(C(=O)NS(=O)(=O)C5(C)CC5)C[C@H]4/C=C\CC[C@@H](C)C[C@@H](C)[C@H](NC(=O)OC(C)(C)C(F)(F)F)C(=O)N3C2)c2ccccc12` reads 0.60

###

assay: Drug concentration in rat plasma at 5 mg/kg, po measured upto 24 hrs; format: ADME, organism-based; details: read-out: Ct
property_measured: concentration at 24 h (nM)
Numbers only; they are read as nM.

The measured concentration at 24 h associated with `CC[C@@H]1C[C@H](C)CC/C=C\[C@@H]2C[C@@]2(C(=O)NS(=O)(=O)C2CC2)NC(=O)[C@@H]2C[C@@H](Oc3ncc(OC)c4ccccc34)CN2C(=O)[C@H]1NC(=O)OC(C)(C)C(F)(F)F` reads 72

The measured concentration at 24 h associated with `[2H]C([2H])([2H])Oc1cc2ccnc(O[C@@H]3C[C@H]4C(=O)N[C@]5(C(=O)NS(=O)(=O)C6(C)CC6)C[C@H]5/C=C\CC[C@@H](C)C[C@@H](CC)[C@H](NC(=O)OC(C)(C)C(F)(F)F)C(=O)N4C3)c2cc1F` reads 3850

The measured concentration at 24 h associated with `C=C[C@@H]1C[C@]1(NC(=O)[C@@H]1C[C@@H](Oc2ncc(OC)c3ccc(Cl)cc23)CN1C(=O)[C@@H](NC(=O)OC(C)(C)C)C(C)(C)C)C(=O)NS(=O)(=O)C1CC1` reads 33

###

Please respond with reported bioavailability for every item in the list.
assay: Oral bioavailability in cynomolgus monkey at 3 mg/kg; assay type: ADME, organism-based, Macaca fascicularis; conditions: in vivo
Kindly format the answer as number then unit.

The measured bioavailability associated with `CC[C@@H]1C[C@H](C)CC/C=C\[C@@H]2C[C@@]2(C(=O)NS(=O)(=O)C2(C)CC2)NC(=O)[C@@H]2C[C@@H](Oc3nccc4cc(OC)c(F)cc34)CN2C(=O)[C@H]1NC(=O)OC(C)(C)C(F)(F)F` reads 14%

The measured bioavailability associated with `[2H]C([2H])([2H])Oc1cc2ccnc(O[C@@H]3C[C@H]4C(=O)N[C@]5(C(=O)NS(=O)(=O)C6(C)CC6)C[C@H]5/C=C\CC[C@@H](C)C[C@@H](CC)[C@H](NC(=O)OC(C)(C)C(F)(F)F)C(=O)N4C3)c2cc1F` reads 23.9%

The measured bioavailability associated with `CC[C@@H]1C[C@H](C)CC/C=C\[C@@H]2C[C@@]2(C(=O)NS(=O)(=O)C2(C)CC2)NC(=O)[C@@H]2C[C@@H](Oc3ncc(OC)c4ccc(F)cc34)CN2C(=O)[C@H]1NC(=O)OC(C)(C)C(F)(F)F` reads 28%

###

Please respond with reported half-life for every item in the list.
assay: Half-life in cynomolgus monkey at 3 mg/kg, po or 1 mg/kg, iv; type: ADME, organism-based, Macaca fascicularis; conditions: in vivo
Numbers only; they are read as h.

The measured half-life associated with `C=C[C@@H]1C[C@]1(NC(=O)[C@@H]1C[C@@H](Oc2ncc(OC)c3ccc(Cl)cc23)CN1C(=O)[C@@H](NC(=O)OC(C)(C)C)C(C)(C)C)C(=O)NS(=O)(=O)C1CC1` reads 1.3

The measured half-life associated with `CC[C@@H]1C[C@H](C)CC/C=C\[C@@H]2C[C@@]2(C(=O)NS(=O)(=O)C2(C)CC2)NC(=O)[C@@H]2C[C@@H](Oc3nccc4cc(OC)c(F)cc34)CN2C(=O)[C@H]1NC(=O)OC(C)(C)C(F)(F)F` reads 3

The measured half-life associated with `CC[C@@H]1C[C@H](C)CC/C=C\[C@@H]2C[C@@]2(C(=O)NS(=O)(=O)C2(C)CC2)NC(=O)[C@@H]2C[C@@H](Oc3ncc(OC)c4ccc(F)cc34)CN2C(=O)[C@H]1NC(=O)OC(C)(C)C(F)(F)F` reads 2.8

The measured half-life associated with `[2H]C([2H])([2H])Oc1cc2ccnc(O[C@@H]3C[C@H]4C(=O)N[C@]5(C(=O)NS(=O)(=O)C6(C)CC6)C[C@H]5/C=C\CC[C@@H](C)C[C@@H](CC)[C@H](NC(=O)OC(C)(C)C(F)(F)F)C(=O)N4C3)c2cc1F` reads 1.2

###

Please respond with reported pEC50 for every item in the list.
test: Inhibition of recombinant full length NS3/4A protease in Hepatitis C virus subtype 3a replicon infected in human HuH7 cells preincubated for 3 days followed by substrate addition and measured after 2 hrs by renilla luciferase reporter gene assay; format: cell-based; details: Huh-7
Expect pEC50 as a plain number equal to -log10 of the molar concentration.

The measured pEC50 associated with `CC[C@@H]1C[C@H](C)CC/C=C\[C@@H]2C[C@@]2(C(=O)NS(=O)(=O)C2CC2)NC(=O)[C@@H]2C[C@@H](Oc3ncc(OC)c4ccccc34)CN2C(=O)[C@H]1NC(=O)OC(C)(C)C(F)(F)F` reads 8.10

The measured pEC50 associated with `COc1cnc(O[C@@H]2C[C@H]3C(=O)N[C@]4(C(=O)NS(=O)(=O)C5CC5)C[C@H]4/C=C\CCCC[C@@H](C)[C@H](NC(=O)OC(C)(C)C(F)(F)F)C(=O)N3C2)c2ccccc12` reads 7.43

The measured pEC50 associated with `[2H]C([2H])([2H])Oc1cc2ccnc(O[C@@H]3C[C@H]4C(=O)N[C@]5(C(=O)NS(=O)(=O)C6(C)CC6)C[C@H]5/C=C\CC[C@@H](C)C[C@@H](CC)[C@H](NC(=O)OC(C)(C)C(F)(F)F)C(=O)N4C3)c2cc1F` reads 7.92

The measured pEC50 associated with `C[C@@H]1CC/C=C\[C@@H]2C[C@@]2(C(=O)NS(=O)(=O)C2CC2)NC(=O)[C@@H]2C[C@@H](Oc3nccc4ccc(F)cc34)CN2C(=O)[C@@H](NC(=O)OC(C)(C)C(F)(F)F)[C@H](C)C1` reads 6.71

###

assay: Half-life in dog at 3 mg/kg, po or 1 mg/kg, iv; assay type: ADME, organism-based, Canis lupus familiaris; conditions: in vivo
property_measured: half-life (h)
Numbers only; they are read as h.

The measured half-life associated with `CC[C@@H]1C[C@H](C)CC/C=C\[C@@H]2C[C@@]2(C(=O)NS(=O)(=O)C2(C)CC2)NC(=O)[C@@H]2C[C@@H](Oc3ncc(OC)c4ccc(F)cc34)CN2C(=O)[C@H]1NC(=O)OC(C)(C)C(F)(F)F` reads 11.3

The measured half-life associated with `[2H]C([2H])([2H])Oc1cc2ccnc(O[C@@H]3C[C@H]4C(=O)N[C@]5(C(=O)NS(=O)(=O)C6(C)CC6)C[C@H]5/C=C\CC[C@@H](C)C[C@@H](CC)[C@H](NC(=O)OC(C)(C)C(F)(F)F)C(=O)N4C3)c2cc1F` reads 8.7

The measured half-life associated with `C=C[C@@H]1C[C@]1(NC(=O)[C@@H]1C[C@@H](Oc2ncc(OC)c3ccc(Cl)cc23)CN1C(=O)[C@@H](NC(=O)OC(C)(C)C)C(C)(C)C)C(=O)NS(=O)(=O)C1CC1` reads 1

The measured half-life associated with `CC[C@@H]1C[C@H](C)CC/C=C\[C@@H]2C[C@@]2(C(=O)NS(=O)(=O)C2(C)CC2)NC(=O)[C@@H]2C[C@@H](Oc3nccc4cc(OC)c(F)cc34)CN2C(=O)[C@H]1NC(=O)OC(C)(C)C(F)(F)F` reads 8.2
